- Assay system: SOS1 (Homo sapiens, UniProt Q07889)
- Construct: adding equal amounts of HIS-SOS1cat (160 nM; Cytoskeleton, US); His; purchased Cytoskeleton, US
- Sequence (Q07889 564-1049 limits assumed): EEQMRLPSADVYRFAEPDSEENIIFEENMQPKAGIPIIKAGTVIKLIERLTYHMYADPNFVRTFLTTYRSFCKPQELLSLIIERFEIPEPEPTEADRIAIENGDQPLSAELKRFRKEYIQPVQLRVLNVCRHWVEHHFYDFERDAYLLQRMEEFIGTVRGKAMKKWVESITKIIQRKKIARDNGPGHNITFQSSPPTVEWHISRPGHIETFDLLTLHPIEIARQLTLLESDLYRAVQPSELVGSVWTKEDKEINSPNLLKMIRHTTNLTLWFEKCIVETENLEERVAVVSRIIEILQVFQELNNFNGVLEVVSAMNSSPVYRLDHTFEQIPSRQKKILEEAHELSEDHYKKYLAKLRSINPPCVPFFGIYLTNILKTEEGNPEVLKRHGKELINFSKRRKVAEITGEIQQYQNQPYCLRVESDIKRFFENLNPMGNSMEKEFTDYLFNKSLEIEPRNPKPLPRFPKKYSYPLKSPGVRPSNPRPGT
- Procedure summary: SOS-catalyzed nucleotide exchange assay (HTRF, SOS1-mediated GTP loading of KRAS G12D)
- Type: biochemical
- Condition description: GST-KRAS G12D, HIS-SOS1cat, EDA-GTP-DY-647P1; compound 128 pM to 10 µM; read-out: SOS-catalyzed nucleotide exchange assay (IC50 range, Grade)
Readings of IC50 for the listed compounds
Parameter: IC50

> print(dat)
                                smiles.text  parameter      assay.result
1  C[C@@H](NC(=O)c1ccc(=O)n([C@@H]2CCCC[C@H]2O)n1)c1cc(N)cc(C(F)(F)F)c1       IC50  1000 to 10000 nM
2  C[C@@H](NC(=O)c1ccc(=O)n(C2=CCOCC2)n1)c1cc(N)cc(C(F)(F)F)c1       IC50         < 1000 nM
3  C[C@@H](NC(=O)c1ccc(=O)n(-c2cccnc2)n1)c1cc(N)cc(C(F)(F)F)c1       IC50         < 1000 nM
4  C[C@@H](NC(=O)c1ccc(=O)n(-c2ccccc2S(C)(=O)=O)n1)c1cc(N)cc(C(F)(F)F)c1       IC50        > 10000 nM
5  C[C@@H](NC(=O)c1ccc(=O)n([C@H]2CCCC[C@@H]2O)n1)c1cc(N)cc(C(F)(F)F)c1       IC50  1000 to 10000 nM
6  [2H]C([2H])([2H])n1nncc1-c1cncc(-n2nc(C(=O)N[C@H](C)c3cccc(C(F)(F)F)c3F)ccc2=O)c1       IC50         < 1000 nM
7  C[C@@H](NC(=O)c1ccc(=O)n(-c2ccccc2NS(C)(=O)=O)n1)c1cc(N)cc(C(F)(F)F)c1       IC50         < 1000 nM
8  C[C@@H](NC(=O)c1ccc(=O)n(-c2cccnc2F)n1)c1cccc(C(F)(F)CO)c1F       IC50         < 1000 nM
